system: autotaxin (Homo sapiens)
Construct: tissue Biocell Laboratories Inc 1121-00
experimentalDetails: Human Serum Autotaxin Assay (choline release from LPC, TOOS detection)
conditionParameters: dialyzed human serum; substrate LPC 14:0, 300 μM; 4 hours at 37° C.; choline release read at 555 nm
Readings of IC50 for the listed compounds

Param request: IC50 | system autotaxin (Homo sapiens) | item `CCCn1cc(-n2c(C)c(Sc3cccc(CC(=O)O)n3)c3ccc(Cl)c(F)c32)cn1` < 0.3 µM

***
Param request: IC50 | system autotaxin (Homo sapiens) | item `Cc1c(Sc2cncc(C(=O)O)c2)c2ccc(Cl)cc2n1Cc1ccccc1` > 1 µM

Param request: IC50 | system autotaxin (Homo sapiens) | item `Cc1c(Sc2cc(C(=O)O)ccn2)c2ccc(Cl)cc2n1-c1cnn(C)c1` > 1 µM
